B1: F1*; the commonest letter at each place (parent)
chain: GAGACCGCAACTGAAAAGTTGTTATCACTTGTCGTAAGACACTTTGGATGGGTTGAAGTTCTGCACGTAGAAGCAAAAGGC

# Variants of: B1
# assay-name: fraction ligated after 30 min (ligated reads / total reads); higher = more ligase activity
# settings: with F1*sub RNA substrate (template-directed ligation), 42 °C
# reported fraction ligated; entries follow
Would you mind answering with just the numeric figure?

[
  {
    "mutations": "A39G A57T",
    "endpoint-value": 0.829
  },
  {
    "mutations": "G31A C40A",
    "endpoint-value": 0.839
  },
  {
    "mutations": "A39G G47T",
    "endpoint-value": 0.389
  },
  {
    "mutations": "A36C A48C",
    "endpoint-value": 0.778
  }
]

## Input What measured fraction ligated goes with C26T T44G ?
## Output 0.836

## Input What measured fraction ligated goes with T45G A56G ?
## Output 0.775

## Input What measured fraction ligated goes with T43G G46A ?
## Output 0.808

## Input What measured fraction ligated goes with G38A A56C ?
## Output 0.778

## Input What measured fraction ligated goes with T44C A56T ?
## Output 0.78

## Input What measured fraction ligated goes with A27G A41C ?
## Output 0.789

## Input What measured fraction ligated goes with T45G A48T ?
## Output 0.187

## Input What measured fraction ligated goes with G34T T43G ?
## Output 0.793

Values were extracted from the supplement of paper PMC6755084.
